System: SNB-75 CNS
METHOD: NCI tumour cell line growth inhibition, 48 h
MEASURED_ATTRIBUTE: TGI (µM)
# output: bare number, implied unit µM

The following molecules have reported results that may help.
CHEMICAL_STRUCTURE | MEASURED_ATTRIBUTE | QUANTITATIVE_READOUT
C/C(=N\NC(=S)N(C)CCN(C)C(=S)N/N=C(\C)c1ccccn1)c1ccccn1 | TGI | 7.59
C[C@]12CC[C@H](O)CC1=CC[C@@H]1[C@@H]2CC[C@]2(C)C(=N/O)/C(=C/c3ccc([N+](=O)[O-])cc3)C[C@@H]12 | TGI | 18
C/C(=C(\c1ccc(OCCN2CCCCCC2)cc1)c1ccc(OC(=O)Cc2ccccc2)cc1)c1ccc(Cl)cc1 | TGI | 5.33

Next, consider the following molecule.
Challenge: Checklist item: TGI tested on SNB-75 CNS, entry "N#C/C(=C/Sc1ccccc1)C(=O)O" , value?
Response given: 55.9

====

System: SNB-75 CNS
METHOD: NCI tumour cell line growth inhibition, 48 h
// TGI lookup, one value per entry
The figure you give is taken to be in µM; do not add the unit.

MOLECULE | TGI, µM
Cc1nc2c(o1)C(=O)c1ccccc1C2=Nc1ccc(N2CCOCC2)cc1 | 5.03

Challenge: Form field: TGI recorded for CCCCCCCCCCCCCCCCOCC(CCl)OP(=O)(O)OP(=O)(O)OCC1OC(n2ccc(N)nc2=O)C(O)C1O (stereo not given) with SNB-75 CNS (enter value)
Response given: 22

====

Tested on: A498 renal
METHOD: NCI tumour cell line growth inhibition, 48 h
Listing of recorded TGI by entry.
Quick reminder: number only, in µM, skip the unit.

Challenge: Any idea what its TGI is? The compound is CCCCCCCC(=O)OCC1OC(OC)C(NC(=O)N(CCCl)N=O)C(O)C1O (centres undefined)
Response given: 56.8

Challenge: What does the data say about its TGI? Entry: "C[C@H]1[C@H]2[C@H]3CC[C@@H]4[C@@]5(C)C/C(=C/c6cccnc6)C(=O)C(C)(C)[C@@H]5CC[C@@]4(C)[C@]3(C)CC[C@]23CO[C@]1(C)[C@@H](C(=O)/C=C\c1cccnc1)C3"
Response given: 1.54

Challenge: Need TGI of "CN1CCN(CCCCN2c3ccccc3Sc3cc(N=[N+]=[N-])ccc32)CC1" , thanks.
Response given: 22.8

Challenge: Entry "CC(C)(C)c1ccc(/C=N/NC(=O)CSCC(=O)N/N=C/c2ccc(C(C)(C)C)cc2)cc1" : reported TGI = ?
Response given: 8.67

====

System: HCT-15 colon
METHOD: NCI tumour cell line growth inhibition, 48 h
Property: TGI; scope: individual compounds

Please review the following examples before continuing.
COMPOUND | RESULT
COc1cc(-c2nn(-c3cccc(NC(=O)c4ccc(N5CCOCC5)c(C(F)(F)F)c4)c3)cc2-c2ccncc2)ccc1Cl | > 100 µM
CCC1C(=O)C(O)[C@H]2[C@@H]3C(O)CC4=CC(=O)CC[C@]4(C)[C@H]3CC[C@]12C (some centres undefined) | > 50 µM
CN(C)CCCCN1c2ccccc2Sc2ccc(C(=O)c3ccccc3)cc21 | 9.27 µM

Would you kindly look at the next entry?
Challenge: Sample CC(=O)NNC(=O)C1CCCCN1 (centres undefined) — what was its TGI?
Response given: > 100 µM

Numbers sourced from PubChem BioAssay (NCI).
